The measurements presented in this section are drawn from PubChem BioAssay (EPA / NIEHS).

// reported AC50 for each item listed
read-out: Vascular cell adhesion molecule 1 (VCAM1), VCAM1 (gene 7412); experiment: BSK_hDFCGF_VCAM1: BioMAP Diversity Plus: hDFCGF Assay for Vascular cell adhesion molecule 1 (VCAM1) Biomarker Activity (AID 2283065); conditions: primary human foreskin fibroblasts; actives raise or lower the signal;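 also: VCAM-1 protein level quantified by ELISA after 24 h chemical exposure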
The source made the active and inactive calls. The calls were made as follows: active = hit-call score of the fitted dose curve at least 0.9, where 1 is the maximum; inactive = score below 0.9.

C=CCOc1c(Br)cc(Br)cc1Br
33.1 µM (active)

Let's switch to this compound now.
Q: Would you kindly share the measured AC50 for CCCCC(CC)COC(=O)c1ccccc1O (stereo not drawn) ?
Result: 14.6 µM (active)

----------
read-out: Interleukin-1 alpha (IL1a), IL1A (gene 3552); experiment: BSK_KF3CT_IL1a: BioMAP Diversity Plus: KF3CT Assay for Interleukin-1 alpha (IL1a) Biomarker Activity (AID 2283070); conditions: primary human keratinocytes with fibroblasts; actives raise or lower the signal
Activity calls are given as the source filed them. How the source made its calls: active means hit-call score of the fitted dose curve at least 0.9, where 1 is the maximum; inactive means score below 0.9.
Would you mind answering with one of these outcomes? YES (active), NO (inactive)

Examples from the recorded data:
O=C(Cl)c1cc(C(=O)Cl)cc(C(=O)Cl)c1
YES
O=Nc1ccc(O)cc1
NO
COCc1c(C(C)C)nc(C(C)C)c(/C=C/[C@@H](O)C[C@@H](O)CC(=O)O)c1-c1ccc(F)cc1
NO

Q: What did the test return for CC(C)C(=O)C(C)C ?
Result: NO

Q: One more molecule: C=C[Si](OC(C)=O)(OC(C)=O)OC(C)=O
Result: NO

----------
Molecular target: Cellular tumor antigen p53 (Homo sapiens)
Test: TOX21_p53_BLA_p5_ratio: Tox21 HCT-116 p53 Agonism Beta-lactamase Assay, Ratio, Phase 5 (AID 2283599)
Protocol: TOX21_p53_BLA_p5 is a cell-based, single-readout assay that uses HCT116, a human intestinal cell line, […] in a 1536-well plate.TOX21_p53_BLA_p5_ratio is an assay readout measuring reporter gene via receptor activity and designed using inducible reporter (beta lactamase induction) detected with GAL4 b-lactamase reporter gene. […] This assay endpoint, TOX21_p53_BLA_p5_ratio, was analyzed in the positive analysis fitting direction relative to DMSO as the negative control and baseline of activity. […]
Results filed as inconclusive are left out. Activity calls are given as the source filed them. Rule for the calls: active = hit-call score of the fitted dose curve at least 0.9, where 1 is the maximum; inconclusive = response in the unintended direction; inactive = score below 0.9.
PARAMETER MEASURED: outcome

CCCCC(CC)CCC(CC(C)C)OS(=O)(=O)O (stereo not drawn)
inactive
COCC(C)N (stereo not drawn)
inactive
Cc1cnc(NC(=O)C2=C(O)c3ccccc3S(=O)(=O)N2C)s1
inactive

----------
target: Nuclear respiratory factor 1 (Homo sapiens) (UniProt Q16656); test: ATG_NRF1_CIS: Attagene CIS-FACTORIAL HepG2 Assay for human Nuclear Respiratory Factor 1 (NRF1) Orphan Gene (AID 2282987); settings: HepG2 NRF1 cis-element reporter, Attagene multiplex; actives raise or lower the signal
Sequence (Q16656 whole entry, looked up): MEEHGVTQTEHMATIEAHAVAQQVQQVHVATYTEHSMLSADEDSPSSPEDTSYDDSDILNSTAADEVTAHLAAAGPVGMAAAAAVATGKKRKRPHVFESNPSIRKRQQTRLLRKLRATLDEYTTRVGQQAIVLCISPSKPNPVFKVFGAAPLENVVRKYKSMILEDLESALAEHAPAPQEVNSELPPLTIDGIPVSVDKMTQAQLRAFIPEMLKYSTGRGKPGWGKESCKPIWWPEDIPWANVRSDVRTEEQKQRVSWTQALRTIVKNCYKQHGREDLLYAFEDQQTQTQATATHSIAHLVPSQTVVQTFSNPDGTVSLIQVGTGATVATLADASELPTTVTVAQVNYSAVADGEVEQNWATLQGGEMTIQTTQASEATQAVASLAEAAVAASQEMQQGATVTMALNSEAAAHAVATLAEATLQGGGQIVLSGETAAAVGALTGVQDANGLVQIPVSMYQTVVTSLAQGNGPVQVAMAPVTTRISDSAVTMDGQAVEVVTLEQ
Active and inactive are the calls of the source. Rule for the calls: active = hit-call score of the fitted dose curve at least 0.9, where 1 is the maximum; inactive = score below 0.9.
Output constraint: value belongs to active, inactive

// known answers, use as guide
CC1(C)S[C@@H]2[C@H](NC(=O)COc3ccccc3)C(=O)N2[C@H]1C(=O)O
inactive
CC(C)(C)C(=O)CCc1ccc(Cl)cc1
inactive

Q: Call for entry COC(=O)C1=C(C)NC(C)=C(C(=O)OCC(C)C)C1c1ccccc1[N+](=O)[O-] (centres undefined) :
Result: active

Q: What do you get for CCCCCC/C=C/C=O ?
Result: inactive

Q: Now the same for CC(=O)c1ccc[nH]1
Result: inactive

Q: And what about the compound CCCOC(=O)CCCCC(=O)OCCC ?
Result: inactive

Q: Now the same for CC/C=C\CCOC(=O)CCCCC
Result: inactive

Q: Lookup CC1=CC[C@H]2C[C@@H]1C2(C)C
Result: inactive

Q: Note, next up: Cc1cc(C)c(C)cc1C
Result: inactive

Q: Subsequent entry: CCCCCCOc1cc(C)c(O)c(C)c1C
Result: inactive

Q: Ok, now CN1C(=O)N(C)C(O)C1O (centres undefined)
Result: inactive

Q: Entry NCCCN1CCN(CCCN)CC1 please
Result: inactive

Q: Another: Cc1cccc(N(C)C(=S)Oc2ccc3ccccc3c2)c1
Result: inactive

Q: Cool, now N[C@H]1C(O)O[C@H](CO)[C@H](O)[C@@H]1O (some centres undefined)
Result: inactive

----------
target: Peroxisome proliferator-activated receptor gamma (Homo sapiens); experiment: ATG_PPARg_TRANS: Attagene TRANS-FACTORIAL HepG2 Assay for human Peroxisome Proliferator-activated Receptor-gamma (PPARg) (AID 2283007)
Records with an inconclusive call do not appear. Activity calls are given as the source filed them. The calls were made as follows: active = hit-call score of the fitted dose curve at least 0.9, where 1 is the maximum; inconclusive = response in the unintended direction; inactive = score below 0.9.
Classes to choose from: active, inactive

N#CCc1ccc(Cl)cc1Cl
inactive

Q: How was CC(C)(C)C(=O)C=Cc1ccc(Cl)cc1 classified in this test?
Result: active

Q: Try O=S1(=O)OC(c2ccc(O)cc2)(c2ccc(O)cc2)c2ccccc21 next.
Result: inactive

Q: Could you do the same for CC1=CC[C@H]2C[C@@H]1C2(C)C , please?
Result: inactive

Q: Now consider C[C@]12CCC(=O)C=C1CC[C@@H]1[C@@H]2C(=O)C[C@@]2(C)[C@H]1CC[C@]2(O)C(=O)CO and answer again.
Result: inactive

Q: Check Cc1c(C)c([N+](=O)[O-])c(C(C)(C)C)c([N+](=O)[O-])c1C too.
Result: inactive

Q: Input SCCc1cnccn1
Result: inactive

Q: Entry to check: CC(=O)c1ccc2c(c1)CCCC2
Result: inactive

Q: Moving on to the next compound: FC(F)(F)C(=NOCC1OCCO1)c1ccc(Cl)cc1
Result: inactive

Q: And for CCOC(=O)c1ccc(N(C)C)cc1 ?
Result: inactive

Q: Now the same for COC(=O)c1ccc2cc(C(=O)OC)ccc2c1
Result: active

Q: Subsequent entry: COC(=O)c1cc(Cl)ccc1[N+](=O)[O-]
Result: active

Q: Quick one: Cc1cc(C)c(C)c(C)c1
Result: inactive

----------
read-out: Tumor necrosis factor (Homo sapiens) (UniProt P01375); test: BSK_LPS_TNFa: BioMAP Diversity Plus: LPS Assay for Tumour Necrosis Factor alpha (TNFa) Biomarker Activity (AID 2283085); conditions: primary human HUVEC with PBMC; actives raise or lower the signal
Sequence (P01375 whole entry, looked up): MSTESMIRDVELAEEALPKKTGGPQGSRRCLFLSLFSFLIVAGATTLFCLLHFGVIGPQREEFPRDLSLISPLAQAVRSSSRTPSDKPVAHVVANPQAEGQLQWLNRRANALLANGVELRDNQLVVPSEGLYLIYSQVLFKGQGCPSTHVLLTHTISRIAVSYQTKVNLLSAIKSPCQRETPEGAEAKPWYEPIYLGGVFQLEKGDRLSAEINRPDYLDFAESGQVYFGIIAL
The source made the active and inactive calls. Rule for the calls: active = hit-call score of the fitted dose curve at least 0.9, where 1 is the maximum; inactive = score below 0.9.
API: response.call in 1 for active, 0 for inactive

O=c1c2ccccc2oc2ccccc12
0
C/C=C\C/C=C/CCCCCCCCOC(C)=O
1
CCO[Si](CCCN=C=O)(OCC)OCC
0
CC1OC1C1CCC2(C)OC2C1 (stereo not drawn)
0
C=CCOCC(O)CCl (stereo not drawn)
0

Q: How did this test come out for S=C(NC1CCCCC1)NC1CCCCC1 ?
Result: 0

Q: Likewise for C=CC=CC=CCCCCC ?
Result: 0

Q: Quick one: O=C(Cl)c1cc(C(=O)Cl)cc(C(=O)Cl)c1
Result: 1

----------
target: human Ephrin type-A Receptor 1 (EphA1), EPHA1 (gene 2041); test: NVS_ENZ_hEphA1: NovaScreen (NVS) Enzymatic Assay for human Ephrin type-A Receptor 1 (EphA1) (AID 2283158);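 also: activity is signal loss versus DMSO meaning EphA1 kinase inhibition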
Records with an inconclusive call do not appear. Active and inactive are the calls of the source. The calls were made as follows: active = hit-call score of the fitted dose curve at least 0.9, where 1 is the maximum; inconclusive = response in the unintended direction; inactive = score below 0.9.
Please state which outcome applies, choosing from active, inactive

Would you please look over these solved cases?
CCCCCCCCCCCCCCCC[N+](C)(C)CC
inactive
N#[N+]c1ccc2c(S(=O)(=O)[O-])cccc2c1O
inactive
COCCOCCOCCOCCOC
inactive
S=C(NC1CCCCC1)NC1CCCCC1
inactive
Cc1cc(C)c(C)c(C)c1
inactive

Q: Just curious, what result did CNC(=S)N(C)C get here?
Result: active

Q: Try this compound too: C/C=C\C/C=C/CCCCCCCCOC(C)=O
Result: inactive

----------
biological target: Aryl hydrocarbon receptor (Homo sapiens); assay: ATG_Ahr_CIS: Attagene CIS-FACTORIAL HepG2 Assay for human Aryl Hydrocarbon Receptor (Ahr) (AID 2282930); conditions: HepG2 AhR cis-factorial reporter transcription; actives raise or lower the signal
Calls of active or inactive are those of the source. Rule for the calls: active = hit-call score of the fitted dose curve at least 0.9, where 1 is the maximum; inactive = score below 0.9.
Your reply should match one of these outcome classes. YES = active, NO = inactive

CCCCCCCCCCCCCCCC[N+](C)(C)CC
NO
CC(C)(C)C(=O)C=Cc1ccc(Cl)cc1
NO
Nc1ccc(N)c(Cl)c1
YES
O=C1CCCCCCCCCCC(=O)OCCO1
NO
C=C[Si](OC(C)=O)(OC(C)=O)OC(C)=O
NO

Q: Hello, I am checking results. What call was entered for CN(C)c1ccc(N=Nc2ccccc2C(=O)O)cc1 ?
Result: NO

Q: Also check COCCOCCOCCOCCOC
Result: NO

----------
experiment: ATG_PXRE_CIS: Attagene CIS-FACTORIAL HepG2 Assay for human Pregnane X Receptor Element (PXRE) (AID 2282957); conditions: HepG2 Attagene CIS-FACTORIAL PXRE reporter, mRNA; actives raise or lower the signal
Active and inactive are the calls of the source. How the source made its calls: active means hit-call score of the fitted dose curve at least 0.9, where 1 is the maximum; inactive means score below 0.9.
Field 'call' accepts active, inactive

// below: answered compounds
O=C(Nc1cccc(C(F)(F)F)c1)c1cc(Br)cc(Br)c1O
inactive
CC(C)c1ccc(C=O)cc1
inactive
O=C(O)C(c1ccc(Cl)cc1)c1ccc(Cl)cc1
active
O=C1c2cccc(O)c2C(=O)c2c(O)cc(CO)cc21
active
c1ccc2c(c1)ccc1ncccc12
active

Q: Please let me know the test result on file for OCCc1ccncc1 .
Result: inactive

Q: For O=C1CCCN1CCO then?
Result: inactive

Q: Cool, now O=S(=O)(Oc1ccc(Cl)cc1Cl)c1ccccc1
Result: active

Q: Okay, and CC(=O)Oc1ccc(C(C)=O)cc1 ?
Result: inactive

Q: Likewise for C=CC(=O)OCCOC1C2CCC1C1CC=CC12 (centres undefined) ?
Result: inactive

Q: Also COc1ccc(NC(C)=O)cc1N ?
Result: inactive

Q: What would you report for CC(=O)OCC(=O)[C@@]12N=C(C)O[C@@H]1C[C@H]1[C@@H]3CCC4=CC(=O)C=C[C@]4(C)[C@H]3[C@@H](O)C[C@@]12C ?
Result: active

Q: Lookup C1=CCCC1
Result: inactive

Q: Another compound to check: ON(Cc1ccccc1)Cc1ccccc1
Result: active
